Experiment: MAD study: multiple ascending oral dose pharmacokinetics
Format: in vivo, human
Conditions: male, human, plasma, oral, 40 mg, Cmax, Day 0, 40 mg, n = 12; geometric mean (geometric %CV)
Experimental Endpoint: Cmax (ng/mL)
Just the number in ng/mL, nothing appended.

Ask: Which value of Cmax has been reported for COc1cccc(-c2ccc(NC(=O)C3=C(C(=O)O)CCC3)c(F)c2)c1 [IMU-838, vidofludimus calcium] in the records?
Result: 5810

* * *

Assay: MAD study: multiple ascending oral dose pharmacokinetics
Assay type: in vivo, human
Details: male, human, plasma, oral, 50 mg, tmax, Day 0, 50 mg pre-dosed, n = 8; median (minimum–maximum)
Experimental Endpoint: Tmax
A bare number is not enough; add the unit after it.

Ask: Which value of Tmax has been reported for `COc1cccc(-c2ccc(NC(=O)C3=C(C(=O)O)CCC3)c(F)c2)c1` in the records?
Result: 2 h

* * *

Assay: MAD study: multiple ascending oral dose pharmacokinetics
Type: in vivo, human
Conditions: male, human, plasma, oral, 50 mg, Cmax, Day 0, 50 mg pre-dosed, n = 8; geometric mean (geometric %CV)
Experimental Endpoint: Cmax (ng/mL)
Just the number in ng/mL, nothing appended.

Ask: Which value of Cmax has been reported for `COc1cccc(-c2ccc(NC(=O)C3=C(C(=O)O)CCC3)c(F)c2)c1` in the records?
Result: 7260

* * *

Test: MAD study: multiple ascending oral dose pharmacokinetics
Type: in vivo, human
Conditions: male, human, plasma, oral, 30 mg, tmax, Day 0, 30 mg, n = 12; median (minimum–maximum)
Experimental Endpoint: Tmax
A bare number is not enough; add the unit after it.

Ask: Which value of Tmax has been reported for `COc1cccc(-c2ccc(NC(=O)C3=C(C(=O)O)CCC3)c(F)c2)c1` in the records?
Result: 3 h

* * *

Experiment: MAD study: multiple ascending oral dose pharmacokinetics
Assay type: in vivo, human
Settings: male, human, plasma, oral, 50 mg, AUC0–t, geometric mean, Day 0, 50 mg not pre-dosed
Experimental Endpoint: AUC(0-t) (ng·h/mL)
Just the number in ng·h/mL, nothing appended.

Ask: Which value of AUC(0-t) has been reported for `COc1cccc(-c2ccc(NC(=O)C3=C(C(=O)O)CCC3)c(F)c2)c1` in the records?
Result: 66700

* * *

Assay: MAD study: multiple ascending oral dose pharmacokinetics
Type: in vivo, human
Settings: male, human, plasma, oral, 30 mg, AUC0–24, Day 0, 30 mg, n = 12; geometric mean (geometric %CV)
Experimental Endpoint: AUC(0-t) (ng·h/mL)
Just the number in ng·h/mL, nothing appended.

Ask: Which value of AUC(0-t) has been reported for COc1cccc(-c2ccc(NC(=O)C3=C(C(=O)O)CCC3)c(F)c2)c1 [IMU-838, vidofludimus calcium] in the records?
Result: 51200

* * *

Test: Preliminary two-compartment population pharmacokinetic model on SAD and MAD data
Format: in vivo, human
Details: male, human, plasma, oral
Experimental Endpoint: half-life (h)
Just the number in h, nothing appended.

Ask: Which value of half-life has been reported for COc1cccc(-c2ccc(NC(=O)C3=C(C(=O)O)CCC3)c(F)c2)c1 [IMU-838, vidofludimus calcium] in the records?
Result: 33.1

* * *

Assay: Preliminary two-compartment population pharmacokinetic model on SAD and MAD data
Assay type: in vivo, human
Conditions: male, human, plasma, oral
Experimental Endpoint: k el (s⁻¹)
Just the number in s⁻¹, nothing appended.

Ask: Which value of k el has been reported for `COc1cccc(-c2ccc(NC(=O)C3=C(C(=O)O)CCC3)c(F)c2)c1` in the records?
Result: 2.5e-05

* * *

Test: MAD study: multiple ascending oral dose pharmacokinetics
Format: in vivo, human
Details: male, human, plasma, oral, 50 mg, tmax, Day 0, 50 mg all, n = 16; median (minimum–maximum)
Experimental Endpoint: Tmax (h)
Just the number in h, nothing appended.

Ask: Which value of Tmax has been reported for `COc1cccc(-c2ccc(NC(=O)C3=C(C(=O)O)CCC3)c(F)c2)c1` in the records?
Result: 2

* * *

Assay: MAD study: multiple ascending oral dose pharmacokinetics
Format: in vivo, human
Details: male, human, plasma, oral, 50 mg, AUC0–24, Day 0, 50 mg not pre-dosed, n = 8; geometric mean (geometric %CV)
Experimental Endpoint: AUC(0-t) (ng·h/mL)
Just the number in ng·h/mL, nothing appended.

Ask: Which value of AUC(0-t) has been reported for COc1cccc(-c2ccc(NC(=O)C3=C(C(=O)O)CCC3)c(F)c2)c1 [IMU-838, vidofludimus calcium] in the records?
Result: 67100

* * *

Assay: MAD study: multiple ascending oral dose pharmacokinetics
Type: in vivo, human
Conditions: male, human, plasma, oral, 30 mg, AUC0–t, geometric mean, Day 0, 30 mg
Experimental Endpoint: AUC(0-t) (ng·h/mL)
Just the number in ng·h/mL, nothing appended.

Ask: Which value of AUC(0-t) has been reported for `COc1cccc(-c2ccc(NC(=O)C3=C(C(=O)O)CCC3)c(F)c2)c1` in the records?
Result: 51100

* * *

Experiment: MAD study: multiple ascending oral dose pharmacokinetics
Format: in vivo, human
Settings: male, human, plasma, oral, 50 mg, Cmax, Day 0, 50 mg all, n = 16; geometric mean (geometric %CV)
Experimental Endpoint: Cmax (ng/mL)
Just the number in ng/mL, nothing appended.

Ask: Which value of Cmax has been reported for `COc1cccc(-c2ccc(NC(=O)C3=C(C(=O)O)CCC3)c(F)c2)c1` in the records?
Result: 6040
